B1: SAT2 (parent)
chain: LTEAEGWHFFCFQGEATRKLAGK

Variants of: B1
test_details: protein stability index of a GFP-peptide fusion (GPS, HEK-293T) (PSI 1-6); higher = more stable;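 further: lentivirally expressed fusions sorted by FACS into six bins by GFP to DsRed ratio, PSI derived from sequencing read proportions per bin multiplied by bin number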
particulars: c terminus: native
# key: entry, value: protein stability index
The answer should be written as a number, with no unit following it.

sequence_content="LTEFEGWHFFCFQGEATRKLAGK [A4F]" parameter_measured="protein stability index" measured_number=1.31

Now for a further variant.
Input line: Report protein stability index, nothing else, for this variant: LTEAEGWHFFCFQGEATRALAGK [K19A]
Output line: 2.35
